Experimental Target: 5-Lipoxygenase from HWBL-1 20,000 xg Supernatant (Rattus norvegicus, UniProt P12527)
Construct: 20,000 xg supernatant from 1.5 million homogenized HWBL-1 cells; endogenous in cells
Sequence (P12527 whole entry): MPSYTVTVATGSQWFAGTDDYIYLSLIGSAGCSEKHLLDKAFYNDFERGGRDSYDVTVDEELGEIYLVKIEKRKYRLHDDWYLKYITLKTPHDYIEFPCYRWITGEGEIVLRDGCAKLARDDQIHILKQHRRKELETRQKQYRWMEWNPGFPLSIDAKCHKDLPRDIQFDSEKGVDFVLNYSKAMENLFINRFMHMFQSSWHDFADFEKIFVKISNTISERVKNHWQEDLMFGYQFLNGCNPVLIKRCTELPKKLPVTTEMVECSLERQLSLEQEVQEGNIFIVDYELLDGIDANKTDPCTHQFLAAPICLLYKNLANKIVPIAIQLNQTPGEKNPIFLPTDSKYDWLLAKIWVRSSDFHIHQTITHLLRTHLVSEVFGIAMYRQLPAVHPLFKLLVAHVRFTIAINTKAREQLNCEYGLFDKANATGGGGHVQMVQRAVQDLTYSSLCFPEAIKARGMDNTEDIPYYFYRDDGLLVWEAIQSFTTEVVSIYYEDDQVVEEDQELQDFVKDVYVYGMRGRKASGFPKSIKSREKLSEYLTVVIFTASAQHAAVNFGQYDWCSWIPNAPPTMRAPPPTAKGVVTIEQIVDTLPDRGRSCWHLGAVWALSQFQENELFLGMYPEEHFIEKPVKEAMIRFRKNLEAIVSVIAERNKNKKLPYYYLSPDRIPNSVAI
Protocol Description: 5-lipoxygenase inhibition, 20,000 xg supernatant of homogenized HWBL-1 cells, radiolabeled arachidonic acid
Test Settings: read-out: IC50 (in vitro inhibitory potency against 5-lipoxygenase)
Known log10 of IC50 of a selection of molecules
Measured Parameter: log10 of IC50 (log10 of the value in nM)

* CC(Oc1cccc(C(=O)NCCN(O)C(N)=O)c1)c1ccccc1 (stereo not drawn) | 2.54
* CC(CN(O)C(N)=O)N(C)C(=O)c1cccc(Oc2ccc(Cl)cc2)c1 (stereo not drawn) | 3.76
* COc1ccc(Oc2cccc(C(=O)NCCN(O)C(N)=O)c2)cc1 | 2.36
* NC(=O)N(O)CC(=O)Nc1cccc(Oc2ccccc2)c1 | 2.68
* CCCCOc1ccc(C(=O)NCCN(O)C(N)=O)cc1 | 2.40
* NC(=O)N(O)CC(=O)Nc1cccc(OCc2ccccc2)c1 | 2.94
* NC(=O)N(O)CCNC(=O)c1cccc(Oc2cccc(C(F)(F)F)c2)c1 | 2.63
* CC(/C=C/c1ccc(Br)cc1)NC(=O)CN(O)C(N)=O (stereo not drawn) | 3.82
* CNC(=O)N(O)CCNC(=O)c1cccc(Oc2ccc(Cl)cc2)c1 | 2.88
